# System: MDA-MB-231
# METHOD: Cell viability MTS assay
# Format: cell-based, human
# CONDITIONS_USED: Homo sapiens, MDA-MB-231, 72 hours with compound
Would you kindly list IC50 for each of these molecules?
Answer with a number only, understood to be in µM.

Q) State the measured IC50 (MDA-MB-231) of O=C1NC(=O)C(c2cn3c4c(cccc24)CCC3)=C1c1cccc(Oc2ccccc2)c1 [Example 14]
A) 98.2

Q) State the measured IC50 (MDA-MB-231) of COc1cccc(C2=C(c3cn4c5c(cccc35)CCC4)C(=O)NC2=O)c1 [Example 65]
A) 60.8

Q) State the measured IC50 (MDA-MB-231) of O=C1NC(=O)[C@@H](c2cn3c4c(cccc24)CCC3)[C@@H]1c1ccsc1 (racemic) [Example 45]
A) 42.7

----------
# MEASURED_TARGET: c-Met (Homo sapiens)
# Sequence (P08581 25-1390): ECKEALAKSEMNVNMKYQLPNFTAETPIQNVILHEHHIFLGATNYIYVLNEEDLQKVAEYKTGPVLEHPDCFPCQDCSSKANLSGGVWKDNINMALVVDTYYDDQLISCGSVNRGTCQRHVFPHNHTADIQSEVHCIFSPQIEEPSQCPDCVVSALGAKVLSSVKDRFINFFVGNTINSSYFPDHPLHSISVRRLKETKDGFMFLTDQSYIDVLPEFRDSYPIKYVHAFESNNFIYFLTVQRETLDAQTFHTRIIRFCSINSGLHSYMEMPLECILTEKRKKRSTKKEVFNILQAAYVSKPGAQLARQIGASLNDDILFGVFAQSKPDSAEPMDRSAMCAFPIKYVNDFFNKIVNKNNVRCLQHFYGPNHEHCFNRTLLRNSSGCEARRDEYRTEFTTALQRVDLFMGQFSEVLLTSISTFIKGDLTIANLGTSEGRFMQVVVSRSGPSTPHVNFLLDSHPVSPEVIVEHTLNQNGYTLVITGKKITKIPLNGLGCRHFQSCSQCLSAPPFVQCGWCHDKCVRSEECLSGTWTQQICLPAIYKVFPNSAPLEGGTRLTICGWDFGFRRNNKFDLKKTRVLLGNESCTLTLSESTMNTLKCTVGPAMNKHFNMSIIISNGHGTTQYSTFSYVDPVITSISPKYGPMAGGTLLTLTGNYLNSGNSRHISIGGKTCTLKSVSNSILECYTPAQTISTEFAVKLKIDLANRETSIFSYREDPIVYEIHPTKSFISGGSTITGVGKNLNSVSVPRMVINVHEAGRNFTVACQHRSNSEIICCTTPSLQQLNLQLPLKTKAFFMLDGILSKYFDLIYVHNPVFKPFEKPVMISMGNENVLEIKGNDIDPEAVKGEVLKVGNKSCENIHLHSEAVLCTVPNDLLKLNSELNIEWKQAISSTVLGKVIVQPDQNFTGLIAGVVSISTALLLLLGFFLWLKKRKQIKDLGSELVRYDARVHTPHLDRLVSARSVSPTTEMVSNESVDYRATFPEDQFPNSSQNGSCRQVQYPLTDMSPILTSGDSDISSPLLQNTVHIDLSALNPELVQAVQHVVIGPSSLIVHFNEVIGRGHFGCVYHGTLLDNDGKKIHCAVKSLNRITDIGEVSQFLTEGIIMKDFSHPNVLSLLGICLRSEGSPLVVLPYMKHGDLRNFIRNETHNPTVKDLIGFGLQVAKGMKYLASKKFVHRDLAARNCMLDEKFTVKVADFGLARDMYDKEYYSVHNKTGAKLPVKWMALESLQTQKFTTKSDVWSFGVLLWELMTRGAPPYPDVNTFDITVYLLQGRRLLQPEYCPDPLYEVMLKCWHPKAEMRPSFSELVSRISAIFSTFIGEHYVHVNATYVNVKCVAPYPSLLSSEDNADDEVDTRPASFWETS
# METHOD: c-Met inhibition, phospho-c-Met blot with densitometry (Example 83)
# Format: cell-based
# Design: whole cell extracts were prepared; endogenous in cells; host or cells: MCF-7, MDA-MB-231, DLD1, HT29, PACA2, PANC-1, NCI-H441
# CONDITIONS_USED: PANC-1 cells, 24 hours treatment; read-out: (−)-trans IC50 c-Met Inhibition
EXPERIMENTAL_ENDPOINT: IC50 (nM)
Answer with a number only, understood to be in nM.

Q) Retrieve IC50 measured for O=C1NC(=O)C(c2cn3c4c(cccc24)CCC3)C1c1c[nH]c2ccccc12 (single isomer, unassigned; (-)) and print it.
A) 500

----------
# Tested on: DU-145
# METHOD: Cell viability MTS assay
# Format: cell-based, human
# CONDITIONS_USED: Homo sapiens, DU-145, 72 hours with compound
Would you kindly list IC50 for each of these compounds?
Answer with a number only, understood to be in µM.

Q) Retrieve IC50 measured for O=C1NC(=O)[C@@H](c2cn3c4c(cccc24)CCC3)[C@H]1c1cccc(Cl)c1 (racemic) and print it.
A) 35.7

Q) Retrieve IC50 measured for O=C1NC(=O)[C@@H](c2cn3c4c(cccc24)CCC3)[C@H]1c1ccc(F)cc1Cl (racemic) and print it.
A) 21.1

Q) Retrieve IC50 measured for O=C1NC(=O)[C@@H](c2cn3c4c(cccc24)CCC3)[C@@H]1c1c[nH]c2ccccc12 (racemic) and print it.
A) 9.61

Q) Retrieve IC50 measured for O=C1NC(=O)C(c2cn3c4c(cccc24)CCC3)=C1c1ccccc1Br and print it.
A) 21.8

Q) Retrieve IC50 measured for O=C1NC(=O)C(c2cn3c4c(cccc24)CCC3)C1c1c[nH]c2ccccc12 (single isomer, unassigned; (-)) and print it.
A) 4

----------
# System: MDA-MB-231
# METHOD: Cell viability MTS assay
# Format: cell-based, human
# CONDITIONS_USED: Homo sapiens, MDA-MB-231, 72 hours with compound
Would you kindly list IC50 for each of these compounds?
Answer with a number only, understood to be in µM.

Q) Retrieve IC50 measured for O=C1NC(=O)C(c2cn3c4c(cccc24)CCC3)=C1c1cccc2ccccc12 and print it.
A) 70.5

Q) Retrieve IC50 measured for O=C1[C@@H](c2c[nH]c3ccccc23)[C@H](c2cn3c4c(cccc24)CCC3)C(=O)N1COP(=O)(O)O (racemic) and print it.
A) 5.89

Q) Retrieve IC50 measured for O=C1NC(=O)[C@@H](c2cn3c4c(cccc24)CCC3)[C@@H]1c1ccc(OCc2ccccc2)cc1 (racemic) and print it.
A) 97.5

Data origin: patent US7713969B2
